All values here come from PubChem BioAssay (NCI).

METHOD_NOTES: NCI Yeast Anticancer Drug Screen. Data for the mec2-1 strain (AID 157)
MEASUREMENT_PARAMETERS: S. cerevisiae mec2-1 strain, at 50.0 µM, hits give high values
This is part of a sample that, as a whole, favours compounds with a hit. Of some 79,000 tested, about 15% had one in any assay. Calls of active or inactive are those of the source. Cut-off read from the data, not from the text of the source: active = growth inhibition above about 70%; inactive = the rest.
MEASURED_ENDPOINT: growth inhibition

Answered examples (8):
| MOLECULE | growth inhibition |
| --- | --- |
| COc1ccc(C(=O)O)cc1 | -19.8% (inactive) |
| O=C(O)C(=O)O.[Co+3].[NH-]C(Cc1ccccc1)C(=O)[O-].[NH-]CCN(CC[NH-])CC[NH-] (stereo not given) | 15.8% (inactive) |
| Nc1cccc2c([N+](=O)[O-])cccc12 | 34.4% (inactive) |
| CC(=O)c1cc2c(cc1C)C(C)=C(C)C2(C)C | -2.35% (inactive) |
| CN1C(c2ccccc2)NC(=O)C12CCN(CCCC(=O)c1ccccc1)CC2 (stereo not given) | 39.7% (inactive) |
| CCc1ccc(OC(C)=O)cc1 | 10.6% (inactive) |
| OC(c1ccccc1)(c1ccc(-c2ccccc2)cc1)c1cccc2ccccc12 (stereo not given) | -14.2% (inactive) |
| COc1ccc(C)cc1NC(=O)c1c(Br)c(Br)c(Br)c(Br)c1C(=O)O | -11.1% (inactive) |

Return growth inhibition (reported value) for this molecule: `CCOC(=O)c1cnc2cc3c(cc2c1Nc1ccc2c(c1)OCO2)OCO3`
13.3% (inactive)

Return growth inhibition (reported value) for this molecule: `CCOC(=O)c1cc(-c2ccccc2)c(-c2ccccc2)c(-c2ccccc2)c1-c1ccccc1`
9.15% (inactive)

Return growth inhibition (reported value) for this molecule: O=C1CC(c2ccccc2)C(c2ccccc2)C1 (stereo not given)
0.45% (inactive)

Return growth inhibition (reported value) for this molecule: COc1cc2c(cc1OC)C1CCc3ccccc3CN1CC2 (stereo not given)
-25.5% (inactive)

Return growth inhibition (reported value) for this molecule: `Cc1cccc2c1NC(=O)C2=O`
8.4% (inactive)

----------
METHOD_NOTES: NCI Yeast Anticancer Drug Screen. Data for the mec2-1 strain (AID 157)
MEASUREMENT_PARAMETERS: S. cerevisiae mec2-1 strain, at 50.0 µM, hits give high values
This is part of a sample that, as a whole, favours compounds with a hit. Of some 79,000 tested, about 15% had one in any assay.
MEASURED_ENDPOINT: growth inhibition (%)
Answer format: numeric, % implied, no suffix.

| COMPOUND | growth inhibition / % |
| --- | --- |
| S=C1SCN(C(c2ccccc2)c2ccccc2)CN1C(c1ccccc1)c1ccccc1 | 22.2 |

Return growth inhibition (reported value) for this compound: CC1(SCC(N)C(=O)O)CC(=O)NC1=O (configuration not stated)
-33.1

Return growth inhibition (reported value) for this compound: `C/C(=N\NC(=S)N1CC2CCC(CC2)C1)c1cccc(C)n1`
-1.45

Return growth inhibition (reported value) for this compound: `O=[N+]([O-])c1ccc(Cl)c2cccnc12`
-7.65

Return growth inhibition (reported value) for this compound: `COC(=O)c1nc(N)nc(C(=O)OC)c1C(=O)/C=C/c1ccccc1`
-8.5

Return growth inhibition (reported value) for this compound: `N#C/C(=C(/N)N1CCOCC1)N1CCOCC1`
-8.95

----------
METHOD_NOTES: NCI Yeast Anticancer Drug Screen. Data for the cln2 rad14 strain (AID 165);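 note: 0% = growth equal to vehicle treated cultures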
MEASUREMENT_PARAMETERS: S. cerevisiae cln2 rad14 strain, at 50.0 µM, hits give high values
The panel holds about 79,000 compounds, 15% with a hit somewhere; the sample as a whole holds those more often.
MEASURED_ENDPOINT: growth inhibition (%)
Answer format: numeric, % implied, no suffix.

Answered examples (5):
| MOLECULE | growth inhibition / % |
| --- | --- |
| Cc1n[nH]c(=O)n1-c1cccnc1 | -12.3 |
| COc1ccc2cc1Oc1ccc(cc1)CC1c3c(cc(OC)c4c3Oc3cc5c(cc3O4)CCNC5C2)CCN1C (stereo unspecified) | -1.1 |
| CN(C)S(=O)(=O)C1(c2ccccc2)CCCC1 | -1.5 |
| O=C(Cn1cc[n+](CC(=O)c2ccccc2)c1)c1ccccc1 | -36.6 |
| C=C(C)C(=O)OC1C/C(CO)=C\C(O)C/C(C)=C/C2OC(=O)C(=C)C21 (stereo unspecified) | 48 |

Return growth inhibition (reported value) for this molecule: `CCOC(=O)C(Br)(C(=O)OCC)C(C)C`
-16

Return growth inhibition (reported value) for this molecule: `Fc1ccc2nc3ccccc3c(SCCNCCSc3c4ccccc4nc4ccc(F)cc34)c2c1`
16.1

Return growth inhibition (reported value) for this molecule: `Oc1ccc(-c2csc(Nc3ccccn3)n2)cc1O`
97.2

Return growth inhibition (reported value) for this molecule: O=C(Cl)C=Cc1ccc([N+](=O)[O-])cc1 (mixture of isomers)
-6.65

Return growth inhibition (reported value) for this molecule: `CCCc1sc(NC(C)=O)nc1-c1ccccc1`
29.3

Return growth inhibition (reported value) for this molecule: `Cc1cc(C)nc(NS(=O)(=O)c2ccc(NC(=O)c3cccc4c(Nc5ccc(S(=O)(=O)N=C(N)N)cc5)c5ccccc5nc34)cc2)n1`
37.5

----------
METHOD_NOTES: NCI Yeast Anticancer Drug Screen. Data for the mlh1 rad18 strain (AID 175)
MEASUREMENT_PARAMETERS: S. cerevisiae mlh1 rad18 strain growth inhibition; at 50.0 µM
Compounds without any hit were thinned out: in the full panel of roughly 79,000, 15% have a hit. Calls of active or inactive are those of the source. Cut-off read from the data, not from the text of the source: active = growth inhibition above about 70%; inactive = the rest.
Use one of these outcomes when replying: label 1 (active), label 0 (inactive)

| MOLECULE | CATEGORY_LABEL |
| --- | --- |
| CSC1=Nc2ccccc2N(C)c2c1c(-c1ccccc1)nn2C | label 0 |

Per the records of this test, what outcome belongs to `CCCc1c(C)[nH]c2ccccc12` ?
label 0

Per the records of this test, what outcome belongs to CSC1=C(CCC(C)CCCC(C)CCCC(C)CCCC(C)CCCC(C)CCCC(C)C)C(=O)c2sccc2C1=O (stereo not drawn) ?
label 0

Per the records of this test, what outcome belongs to CCOC(NC(C)=O)C(O)c1ccc(Cl)cc1 (stereo not drawn) ?
label 0

Per the records of this test, what outcome belongs to `CC(C)(C)C1=CC(=N/S(=O)(=O)c2ccccc2)/C(N=[N+]=[N-])=C(Cl)C/1=N\S(=O)(=O)c1ccccc1` ?
label 0

Per the records of this test, what outcome belongs to `CC(=O)Nc1ccc(C=O)cc1[N+](=O)[O-]` ?
label 0

Per the records of this test, what outcome belongs to `Cc1cc2c(c(O)c1-c1c(C)cc(O)c3c1C(=O)C=CC3=O)C(=O)C=CC2=O` ?
label 0

Per the records of this test, what outcome belongs to `O=C1c2ccccc2-c2nnc(-c3ccc(Cl)cc3)cc21` ?
label 0

----------
Collected growth inhibition values appear next to each entry.
METHOD_NOTES: NCI Yeast Anticancer Drug Screen. Data for the mec2-1 strain (AID 157)
MEASUREMENT_PARAMETERS: S. cerevisiae mec2-1 strain, at 50.0 µM, hits give high values
Procedure: Growth inhibition of yeast strains with defined genetic alterations is measured as a screen for potential anti-cancer activity. Selected strains with alterations in DNA damage repair or cell cycle control were exposed to compounds and growth inhibition was measured relative to vehicle treated controls. The strain used in this assay is mec2-1
Compounds without any hit were thinned out: in the full panel of roughly 79,000, 15% have a hit.
Answer format: numeric, % implied, no suffix.

Answered examples (10):
| COMPOUND | NUMERIC_RESULT |
| --- | --- |
| O=C(O)C(Cc1ccccc1)C(=O)O.[NH2-].[NH2-].[Pt+2] | -0.95 |
| Cc1cccc(C)c1NC(=S)NC=C(C(N)=O)C(N)=O | -23.6 |
| Clc1ccccc1OCCNC1CC1 | -0.1 |
| CCOC(=O)c1cc(-c2ccccc2)nc2nc(N)ccc12 | -3.15 |
| CCSC1(SCC)C(=O)OC2=C(CCCCC2)C1N(C)c1ccccc1 (configuration not stated) | -12.7 |
| CCOC(=O)c1[nH]c(CC(=O)O)c(C(=O)O)c1C | 26.4 |
| N#Cc1cc([N+](=O)[O-])ccc1NC(=O)C(=O)Nn1c(=S)[nH]c2ccccc2c1=O | -2.6 |
| CCCC(=O)Oc1ccc(Cl)cc1 | -4.45 |
| Cc1ccc(S(=O)(=O)NC(=O)c2ncn(C3OC(CO)C(O)C3O)c2N)cc1 (configuration not stated) | 10.8 |
| S=C(NC1CCCCC1)N1CCC(CCCC2CCN(C(=S)NC3CCCCC3)CC2)CC1 | -31.2 |

Return growth inhibition (reported value) for this compound: CC(O)(/C=C/c1ccccc1)P(=O)(O)c1ccccc1 (configuration not stated)
-13.2

Return growth inhibition (reported value) for this compound: `N#CCCCO`
11.6

Return growth inhibition (reported value) for this compound: [N-]=[N+]=NC1CC(n2cc(Cc3ccccc3)c(N)nc2=O)OC1CO (configuration not stated)
-10.6

Return growth inhibition (reported value) for this compound: `N#CC(=Nc1ccccc1N(C(=O)c1ccccc1)C(=O)c1ccccc1)c1ccccc1`
-19.4

Return growth inhibition (reported value) for this compound: `CC1=CC(=Nc2ccc(N(C)C)cc2)C(C)=CC1=O`
-28.3

Return growth inhibition (reported value) for this compound: `CCN(CC)CCCNc1ncc(C)c2[nH]c3ccncc3c12`
22.6

Return growth inhibition (reported value) for this compound: `CC(=O)c1cc(-c2ccccn2)c(=O)n2ccccc12`
15.5

Return growth inhibition (reported value) for this compound: `S=c1cc(Cc2ccccc2)[nH]c(=S)[nH]1`
-11.1
